Measured pIC50, listed per entry for reference.
molecular target: human JAK1 (Homo sapiens); construct: catalytic domain, amino acids 866-1154; catalog number PV4774; experiment: JAK1 inhibition assay (polyGT substrate / Ulight-JAK1 peptide); conditions: recombinant human JAK1 catalytic domain; polyGT or Ulight-JAK1 peptide assay
pIC50: −log10 of the molar value.

pIC50 of COc1cc(C2CCN(C(=O)CC#N)CC2)ncc1N(C)c1cc2c(cn1)ncn2C on human JAK1 (Homo sapiens)?
6.00 to 6.30

Under human JAK1 (Homo sapiens): pIC50 value of Cc1cc(OCCN2CCCC2)ccc1N(C)c1cc2c(cn1)ncn2C ?
6.00 to 6.30

Lookup: pIC50 / human JAK1 (Homo sapiens) / CCNC(=O)C1CN(c2cc(CC)c(N(C)c3cc4c(cn3)ncn4C)cn2)C1
6.00 to 6.30

---

test system: BA/F3 cell line; assay: BA/F3 viability assay; details: Mus musculus, BaF3, 48 h, read-out: BA/F3 IC50
pIC50: −log10 of the molar value.
Reported pIC50 by item:

CCc1cc(-c2cn[nH]c2)ccc1N(C)c1cc2c(cn1)ncn2C = 6.00 to 9.00
CCc1cc(C2CCN(S(C)(=O)=O)CC2)ccc1N(C)c1cc2c(cn1)ncn2C = 6.00 to 9.00
CCc1cc(CN2CC(F)(F)C2)ccc1N(C)c1cc2c(cn1)ncn2C = < 5.30
CCc1cc(CNS(C)(=O)=O)ccc1N(C)c1cc2c(cn1)ncn2C = 5.30 to 6.00
CCc1cc(C2CN(S(C)(=O)=O)C2)ncc1N(C)c1cc2c(cn1)ncn2C = < 5.30
CCc1cc(CN(CC#N)S(C)(=O)=O)ccc1N(C)c1cc2c(cn1)ncn2C = 5.30 to 6.00
CCc1cc(N2CC(C(=O)NC)C2)ncc1N(C)c1cc2c(cn1)ncn2C = < 5.30

pIC50 for CCc1cc(CN(CC#N)S(C)(=O)=O)cc(F)c1N(C)c1cc2c(cn1)ncn2C ?
5.30 to 6.00

---

molecular target: human JAK1 (Homo sapiens); construct: catalytic domain, amino acids 866-1154; catalog number PV4774; test: JAK1 inhibition assay (polyGT substrate / Ulight-JAK1 peptide); conditions: recombinant human JAK1 catalytic domain; polyGT or Ulight-JAK1 peptide assay
Reported IC50 values follow for various molecules

CCc1cc(C(=O)NC2CN(S(C)(=O)=O)C2)ccc1N(C)c1cc2c(cn1)ncn2C = 501 to 1000 nM
CCN(c1ccc2occc2c1)c1cc2c(cn1)ncn2C = 101 to 500 nM
CCc1cc(C(=O)OC)ccc1N(C)c1cc2c(cn1)ncn2C = 0.01 to 100 nM
CCc1ccccc1N(c1cc2c(cn1)ncn2C)C1CC1 = 101 to 500 nM
CCc1cc(C2=CCN(C(=O)N(C)CC#N)CC2)ccc1N(C)c1cc2c(cn1)ncn2C = 0.01 to 100 nM

Would you mind telling me what IC50 value was observed for CCc1cc(C2CCN(CC#N)CC2)ncc1N(C)c1cc2c(cn1)ncn2C ?
0.01 to 100 nM

Which measured IC50 value corresponds to CCc1cc(C2CCN(C(=O)OC(C)(C)C)CC2)ccc1N(C)c1cc2c(cn1)ncn2C ?
101 to 500 nM

Consider the molecule shown here: CCc1cc(C2CN(C(=O)C3CC(F)(F)C3)C2)ncc1N(C)c1cc2c(cn1)ncn2C What is its recorded IC50?
101 to 500 nM

Need IC50, item CN(c1cc2c(cn1)ncn2C)c1ccc(C2CN(C(=O)N3CCCCC3)C2)cc1OC(F)F
501 to 1000 nM

---

Listed below: pIC50 values for each entry.
molecular target: human JAK1 (Homo sapiens, UniProt P23458); construct: catalytic domain, amino acids 866-1154; catalog number PV4774; test: JAK1 inhibition assay (polyGT substrate / Ulight-JAK1 peptide); settings: recombinant human JAK1 catalytic domain; polyGT or Ulight-JAK1 peptide assay
Sequence (P23458 866-1154): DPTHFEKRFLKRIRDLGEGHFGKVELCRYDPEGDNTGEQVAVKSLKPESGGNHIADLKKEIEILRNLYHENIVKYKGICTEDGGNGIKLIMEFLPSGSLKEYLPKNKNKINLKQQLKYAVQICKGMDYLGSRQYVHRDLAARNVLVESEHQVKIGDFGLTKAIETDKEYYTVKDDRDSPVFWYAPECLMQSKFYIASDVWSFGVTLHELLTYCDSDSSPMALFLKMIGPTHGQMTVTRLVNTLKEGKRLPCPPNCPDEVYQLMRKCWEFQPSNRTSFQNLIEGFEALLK
pIC50: −log10 of the molar value.

As a guide, the following entries are already answered.
CCc1cc(-c2cnc(C(C)C)nc2)ccc1N(C)c1cc2c(cn1)ncn2C = 7.00 to 11.00
CCc1cc(CN2CCN(S(C)(=O)=O)CC2)ccc1N(C)c1cc2c(cn1)ncn2C = 7.00 to 11.00
Cc1ccc(OCc2ccc(Cl)cc2)cc1N(C)c1cc2c(cn1)ncn2C = 6.00 to 6.30

May I ask what pIC50 has been recorded for CCc1cc(C#N)cc(F)c1N(C)c1cc2c(cn1)ncn2C ?
7.00 to 11.00

Reported pIC50, compound CN(c1cc2c(cn1)ncn2C)c1c(F)cc(C2CN(S(C)(=O)=O)C2)cc1F : ____
7.00 to 11.00

Look up pIC50 for this compound: CCC(=O)N1CC(c2cc(CC)c(N(C)c3cc4c(cn3)ncn4C)cn2)C1
7.00 to 11.00

Please report the recorded pIC50 for CCc1cc(CNC2CCN(C(=O)OC(C)(C)C)C2)ccc1N(C)c1cc2c(cn1)ncn2C (stereo not drawn) .
7.00 to 11.00

Need pIC50, item CCC(=O)N1CC=C(c2ccc(N(C)c3cc4c(cn3)ncn4C)c(CC)c2)CC1
7.00 to 11.00

# input compound: Cc1ccc(Oc2ccc(C#N)nc2)cc1N(C)c1cc2c(cn1)ncn2C ; wanted: its pIC50
7.00 to 11.00

Which measured pIC50 value corresponds to CCc1cc(C2CN(C(=O)C(F)F)C2)ccc1N(C)c1cc2c(cn1)ncn2C ?
7.00 to 11.00

For CCc1ccccc1N(Cc1cccnc1)c1cc2c(cn1)ncn2C , what is its reported pIC50?
6.00 to 6.30

# get_value(readout='pIC50', item= CCc1cc(-c2ccc(C#N)nc2)ccc1N(C)c1cc2c(cn1)ncn2C )
7.00 to 11.00

Look up pIC50 for this compound: CCc1cc(N2CCCC2=O)ncc1N(C)c1cc2c(cn1)ncn2C
6.30 to 7.00

Looking for the measured pIC50 of CCc1cc(CNS(=O)(=O)C2CC2)ccc1N(C)c1cc2c(cn1)ncn2C , can you help?
7.00 to 11.00

Query: pIC50; subject: CCc1cn(C2(CC#N)CNC2)nc1N(C)c1cc2c(cn1)ncn2C
< 6.00

Given the compound CCc1cc(-c2cnc(NC)nc2)ccc1N(C)c1cc2c(cn1)ncn2C , what is its reported pIC50?
7.00 to 11.00

Suppose we examine the compound CCc1cc(C2=CCN(C(=O)NC3COC3)CC2)ccc1N(C)c1cc2c(cn1)ncn2C ; what pIC50 value has been reported?
7.00 to 11.00

Need pIC50 of CCc1cc(-c2noc(CCC#N)n2)ccc1N(C)c1cc2c(cn1)ncn2C , thanks.
7.00 to 11.00

---

Below, each of the compounds is paired with its reported IC50 value.
test system: pSTAT1(2)-luciferase reporter in HeLa cells triggered with human OSM; test: JAK-STAT signalling assay; format: cell-based; details: Homo sapiens, HeLa, HeLa cells, pSTAT1(2)-luciferase reporter, human OSM 33 ng/mL; read-out: JAK-STAT IC50

CN(c1cc2c(cn1)ncn2C)c1ccc(CNS(C)(=O)=O)cc1F = 501 to 1000 nM
CCc1cc(CN2CCN(C)CC2)ccc1N(C)c1cc2c(cn1)ncn2C = > 1000 nM
CCc1cc(CO)ccc1N(C)c1cc2c(cn1)ncn2C = 1 to 500 nM
CCc1cc(CN2CCS(=O)(=O)CC2)ccc1N(C)c1cc2c(cn1)ncn2C = > 1000 nM

GET /values?readout=IC50&system=pSTAT1(2)-luciferase reporter in HeLa cells triggered with human OSM&item= CCc1cc(-c2cncc(F)c2)ccc1N(C)c1cc2c(cn1)ncn2C
1 to 500 nM

---

Listed next: entries and their corresponding pIC50.
molecular target: human JAK2 (Homo sapiens, UniProt O60674); construct: catalytic domain (amino acids 808-1132; catalog number PV4210); GST; assay: JAK2 inhibition assay (polyGT substrate / Ulight-JAK1 peptide); settings: recombinant human JAK2 catalytic domain; polyGT or Ulight-JAK1 peptide assay
Sequence (O60674 808-1132): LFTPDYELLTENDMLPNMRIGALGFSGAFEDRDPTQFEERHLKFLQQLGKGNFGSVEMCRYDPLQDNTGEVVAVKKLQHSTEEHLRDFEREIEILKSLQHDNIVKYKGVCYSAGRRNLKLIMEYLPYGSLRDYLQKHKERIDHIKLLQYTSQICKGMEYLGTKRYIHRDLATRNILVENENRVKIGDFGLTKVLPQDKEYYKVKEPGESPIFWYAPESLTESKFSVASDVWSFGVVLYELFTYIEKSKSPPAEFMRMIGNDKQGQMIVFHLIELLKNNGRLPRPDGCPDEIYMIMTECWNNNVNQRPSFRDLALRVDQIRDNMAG
pIC50: −log10 of the molar value.

Cc1cc(OCC(=O)N(C)C)ccc1N(C)c1cc2c(cn1)ncn2C = < 6.00
CCc1cc(CNCC(F)(F)F)ccc1N(C)c1cc2c(cn1)ncn2C = 7.00 to 11.00
CCc1cc(C(C#N)N2CCC(C#N)CC2)ccc1N(C)c1cc2c(cn1)ncn2C (stereo not drawn) = 7.00 to 11.00
Cc1cc(Oc2ccc(C#N)nc2)ccc1N(C)c1cc2c(cn1)ncn2C = < 6.00
Cc1ccc(OCc2ccc(C#N)nc2)cc1N(C)c1cc2c(cn1)ncn2C = < 6.00
CCc1ccccc1N(Cc1cccnc1)c1cc2c(cn1)ncn2C = < 6.00

For CCc1cc(N2CC[C@H](F)C2)ncc1N(C)c1cc2c(cn1)ncn2C , what is its reported pIC50?
7.00 to 11.00

What value of pIC50 has been recorded for this entry: Cc1cc(OCCN2CCCC2)ccc1N(C)c1cc2c(cn1)ncn2C
< 6.00

Quick check: pIC50 of CN(c1cc2c(cn1)ncn2C)c1ccc(C2CN(C(=O)N3CCOCC3)C2)cc1OC(F)F ?
< 6.00
